B1: PTPN9 (parent)
chain: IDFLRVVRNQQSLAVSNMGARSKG

variants of: B1; assay: protein stability index of a GFP-peptide fusion (GPS, HEK-293T) (PSI 1-6); higher = more stable; settings: c terminus: a fixed tail appended;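 also: lentivirally expressed fusions sorted by FACS into six bins by GFP to DsRed ratio, PSI derived from sequencing read proportions per bin multiplied by bin number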
property-measured: protein stability index

Example variants with recorded protein stability index:
R21A :: 2.6
A14W :: 2.39
L4F :: 2.3
M18R :: 3.35
N9M :: 1.88

Req: Find the recorded protein stability index belonging to S22V and report it.
Resp: 2.03

Req: Follow-up item: D2L
Resp: 1.53

Req: Follow-up item: S22T
Resp: 2.23

Req: Follow-up item: V6A
Resp: 3.12

Req: Follow-up item: S16I
Resp: 1.74

Req: Follow-up item: L4Y
Resp: 1.89

Req: Follow-up item: A20E
Resp: 1.92
